- Test system: Enterococcus
- methodNotes: Activity of Enterococcus APH(3')-3a
Known Km of a selection of molecules
propertyLabel: Km (µM)

molecule: NCC[C@H](O)C(=O)NC[C@H]1O[C@@H](O[C@@H]2[C@@H](O)[C@H](N)C[C@H](N)[C@H]2O[C@H]2O[C@H](CN)[C@@H](O)[C@H](O)[C@H]2N)[C@H](O)[C@@H]1O[C@H]1O[C@@H](CN)[C@@H](O)[C@H](O)[C@H]1N
assayResult: 50
--
molecule: NC[C@@H]1O[C@H](O[C@H]2[C@@H](O)[C@H](O[C@@H]3[C@@H](O)[C@H](N)C[C@H](N)[C@H]3O[C@H]3O[C@H](CN)[C@@H](O)[C@H](O)[C@H]3N)O[C@@H]2Cn2cc(C3CCCCN3)nn2)[C@H](N)[C@@H](O)[C@@H]1O (stereo partly drawn)
assayResult: 150
--
molecule: NCCCC[C@H](N)C(=O)NC[C@H]1O[C@@H](O[C@@H]2[C@@H](O)[C@H](N)C[C@H](N)[C@H]2O[C@H]2O[C@H](CN)[C@@H](O)[C@H](O)[C@H]2N)[C@H](O)[C@@H]1O[C@H]1O[C@@H](CN)[C@@H](O)[C@H](O)[C@H]1N
assayResult: 78

---

Known Vmax of a selection of compounds
- Test system: Enterococcus
- methodNotes: Activity of Enterococcus APH(3')-3a
propertyLabel: Vmax

compound: C[C@H](N)C(=O)NC[C@H]1O[C@@H](O[C@@H]2[C@@H](O)[C@H](N)C[C@H](N)[C@H]2O[C@H]2O[C@H](CN)[C@@H](O)[C@H](O)[C@H]2N)[C@H](O)[C@@H]1O[C@H]1O[C@@H](CN)[C@@H](O)[C@H](O)[C@H]1N
assayResult: 0.9 µmol/min/mg

compound: NC[C@@H]1O[C@@H](O[C@H]2[C@H](O)[C@@H](O[C@H]3O[C@H](CO)[C@@H](O)[C@H](N)[C@H]3O)[C@H](N)C[C@@H]2N)[C@@H](O)[C@H](O)[C@H]1O [KANAMYCIN A]
assayResult: 6.96 µmol/min/mg

compound: NC[C@@H]1O[C@H](O[C@H]2[C@@H](O)[C@H](O[C@@H]3[C@@H](O)[C@H](N)C[C@H](N)[C@H]3O[C@H]3O[C@H](CN)[C@@H](O)[C@H](O)[C@H]3N)O[C@@H]2Cn2cc(CNC(=O)C3CCNCC3)nn2)[C@H](N)[C@@H](O)[C@@H]1O
assayResult: 0.41 µmol/min/mg

compound: NC[C@@H]1O[C@H](O[C@H]2[C@@H](O)[C@H](O[C@@H]3[C@@H](O)[C@H](N)C[C@H](N)[C@H]3O[C@H]3O[C@H](CN)[C@@H](O)[C@H](O)[C@H]3N)O[C@@H]2CO)[C@H](N)[C@@H](O)[C@@H]1O [FRAMYCETIN]
assayResult: 3.22 µmol/min/mg

compound: NC[C@@H]1O[C@H](O[C@H]2[C@@H](O)[C@H](O[C@@H]3[C@@H](O)[C@H](N)C[C@H](N)[C@H]3O[C@H]3O[C@H](CN)[C@@H](O)[C@H](O)[C@H]3N)O[C@@H]2CNC(=O)[C@H](N)CO)[C@H](N)[C@@H](O)[C@@H]1O
assayResult: 0.93 µmol/min/mg

compound: NCc1cn(C[C@H]2O[C@@H](O[C@@H]3[C@@H](O)[C@H](N)C[C@H](N)[C@H]3O[C@H]3O[C@H](CN)[C@@H](O)[C@H](O)[C@H]3N)[C@H](O)[C@@H]2O[C@H]2O[C@@H](CN)[C@@H](O)[C@H](O)[C@H]2N)nn1
assayResult: 0.68 µmol/min/mg

compound: NC[C@@H]1O[C@H](O[C@H]2[C@@H](O)[C@H](O[C@@H]3[C@@H](O)[C@H](N)C[C@H](N)[C@H]3O[C@H]3O[C@H](CN)[C@@H](O)[C@H](O)[C@H]3N)O[C@@H]2CNC(=O)[C@@H]2CCCN2)[C@H](N)[C@@H](O)[C@@H]1O
assayResult: 0.63 µmol/min/mg

compound: NC[C@@H]1O[C@H](O[C@H]2[C@@H](O)[C@H](O[C@@H]3[C@@H](O)[C@H](N)C[C@H](N)[C@H]3O[C@H]3O[C@H](CN)[C@@H](O)[C@H](O)[C@H]3N)O[C@@H]2CNC(=O)c2cc(-c3ccccc3)nc3ccccc23)[C@H](N)[C@@H](O)[C@@H]1O
assayResult: 0.38 µmol/min/mg

compound: NC[C@@H]1O[C@H](O[C@H]2[C@@H](O)[C@H](O[C@@H]3[C@@H](O)[C@H](N)C[C@H](N)[C@H]3O[C@H]3O[C@H](CN)[C@@H](O)[C@H](O)[C@H]3N)O[C@@H]2Cn2cc(C3CCCCN3)nn2)[C@H](N)[C@@H](O)[C@@H]1O (stereo partly specified)
assayResult: 0.54 µmol/min/mg

compound: CC(=O)NCC1CN(Cc2cn(C[C@H]3O[C@@H](O[C@@H]4[C@@H](O)[C@H](N)C[C@H](N)[C@H]4O[C@H]4O[C@H](CN)[C@@H](O)[C@H](O)[C@H]4N)[C@H](O)[C@@H]3O[C@H]3O[C@@H](CN)[C@@H](O)[C@H](O)[C@H]3N)nn2)C(=O)O1 (stereo partly specified)
assayResult: 0.41 µmol/min/mg

compound: CCCCCCCCCCCCCCCC(=O)NC[C@H]1O[C@@H](O[C@@H]2[C@@H](O)[C@H](N)C[C@H](N)[C@H]2O[C@H]2O[C@H](CN)[C@@H](O)[C@H](O)[C@H]2N)[C@H](O)[C@@H]1O[C@H]1O[C@@H](CN)[C@@H](O)[C@H](O)[C@H]1N
assayResult: 0.85 µmol/min/mg

compound: C[C@@H](N)C(=O)NC[C@H]1O[C@@H](O[C@@H]2[C@@H](O)[C@H](N)C[C@H](N)[C@H]2O[C@H]2O[C@H](CN)[C@@H](O)[C@H](O)[C@H]2N)[C@H](O)[C@@H]1O[C@H]1O[C@@H](CN)[C@@H](O)[C@H](O)[C@H]1N
assayResult: 0.82 µmol/min/mg

compound: NC[C@@H]1O[C@H](O[C@H]2[C@@H](O)[C@H](O[C@@H]3[C@@H](O)[C@H](N)C[C@H](N)[C@H]3O[C@H]3O[C@H](CN)[C@@H](O)[C@H](O)[C@H]3N)O[C@@H]2Cn2cc(CNC(=O)c3cc(-c4ccccc4)nc4ccccc34)nn2)[C@H](N)[C@@H](O)[C@@H]1O
assayResult: 0.3 µmol/min/mg

compound: NC[C@@H]1O[C@H](O[C@H]2[C@@H](O)[C@H](O[C@@H]3[C@@H](O)[C@H](N)C[C@H](N)[C@H]3O[C@H]3O[C@H](CN)[C@@H](O)[C@H](O)[C@H]3N)O[C@@H]2Cn2cc(CNC(=O)[C@@H]3CCCN3)nn2)[C@H](N)[C@@H](O)[C@@H]1O
assayResult: 0.4 µmol/min/mg

compound: CCCCCCC(=O)NC[C@H]1O[C@@H](O[C@@H]2[C@@H](O)[C@H](N)C[C@H](N)[C@H]2O[C@H]2O[C@H](CN)[C@@H](O)[C@H](O)[C@H]2N)[C@H](O)[C@@H]1O[C@H]1O[C@@H](CN)[C@@H](O)[C@H](O)[C@H]1N
assayResult: 0.95 µmol/min/mg

compound: CN(C)Cc1cn(C[C@H]2O[C@@H](O[C@@H]3[C@@H](O)[C@H](N)C[C@H](N)[C@H]3O[C@H]3O[C@H](CN)[C@@H](O)[C@H](O)[C@H]3N)[C@H](O)[C@@H]2O[C@H]2O[C@@H](CN)[C@@H](O)[C@H](O)[C@H]2N)nn1
assayResult: 0.65 µmol/min/mg
